- Tested on: 843126-344-R-J1-PDC complex spheroid viability;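 further: spheroids exposed to drugs for seven days before readout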
- procedure-summary: Anticancer human tumor 843126-344-R-J1-PDC patient-derived melanoma cell line growth inhibition [POLQ]
- condition-label: second compound 0.0316 µM; first compound 0.0316 µM; active compounds read low
Please note: viability, T/C exactly at 90% is NOT MET. Only values below 90% get MET.

{"compound": "COc1cccc2c1C(=O)c1c(O)c3c(c(O)c1C2=O)CC(O)(C(=O)CO)CC3OC1CC(N)C(O)C(C)O1 (stereo not given) + Cc1cccc(N(C)C(=O)C2C(O)CCN2c2nc(C)cc(C(F)(F)F)c2C#N)c1", "label-value": "NOT MET"}
{"compound": "CC1COCCN1c1cc(-c2ccnn2C)c2ccnc(-c3ccn[nH]3)c2n1 (stereo not given) + Cc1cccc(N(C)C(=O)C2C(O)CCN2c2nc(C)cc(C(F)(F)F)c2C#N)c1", "label-value": "MET"}
{"compound": "COc1cc2cc(C(=O)CCC(=O)O)sc2cc1OC + Nc1ccc(C#CCN(C(=O)Cc2ncc(C(F)(F)F)cc2C(F)(F)F)c2ccc(F)cc2)nn1", "label-value": "MET"}
{"compound": "COc1cc(C2c3cc4c(cc3C(OC3OC5COC(C)OC5C(O)C3O)C3COC(=O)C23)OCO4)cc(OC)c1O (stereo not given) + Cc1cccc(N(C)C(=O)C2C(O)CCN2c2nc(C)cc(C(F)(F)F)c2C#N)c1", "label-value": "MET"}
{"compound": "C=CCn1c(=O)c2cnc(Nc3ccc(N4CCN(C)CC4)cc3)nc2n1-c1cccc(C(C)(C)O)n1 + COC1C(OC(N)=O)C(O)C(Oc2ccc3c(O)c(NC(=O)c4ccc(O)c(CC=C(C)C)c4)c(=O)oc3c2C)OC1(C)C", "label-value": "MET"}
